# EXPERIMENTAL_SYSTEM: human FSH receptor (Homo sapiens)
# Sequence (P23945 18-695): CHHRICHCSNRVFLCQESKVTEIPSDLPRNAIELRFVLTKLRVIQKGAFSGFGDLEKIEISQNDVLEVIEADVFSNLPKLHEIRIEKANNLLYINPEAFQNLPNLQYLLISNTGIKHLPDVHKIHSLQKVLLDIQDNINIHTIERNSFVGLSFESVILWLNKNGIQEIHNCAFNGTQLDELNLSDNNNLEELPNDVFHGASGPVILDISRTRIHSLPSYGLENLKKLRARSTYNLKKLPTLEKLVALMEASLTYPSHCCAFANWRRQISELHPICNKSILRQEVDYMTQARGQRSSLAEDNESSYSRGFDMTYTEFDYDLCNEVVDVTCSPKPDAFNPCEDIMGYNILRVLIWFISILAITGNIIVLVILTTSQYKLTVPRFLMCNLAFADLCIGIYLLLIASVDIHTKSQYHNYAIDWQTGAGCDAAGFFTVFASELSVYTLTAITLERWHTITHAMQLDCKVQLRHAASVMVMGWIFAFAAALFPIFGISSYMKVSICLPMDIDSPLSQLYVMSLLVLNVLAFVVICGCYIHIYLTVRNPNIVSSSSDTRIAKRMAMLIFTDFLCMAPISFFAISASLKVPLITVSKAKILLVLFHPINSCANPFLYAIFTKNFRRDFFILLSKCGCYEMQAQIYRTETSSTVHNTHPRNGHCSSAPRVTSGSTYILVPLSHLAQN
# ASSAY_INFO: CHO-FSH in vitro bioactivity (CRE-luciferase reporter, agonistic or antagonistic set-up)
# DETAILS: CHO cells stably transfected with human FSH receptor and CRE-luciferase; either agonistic or antagonistic (rec-hFSH, 10 mU/ml) assay set-up or both / at least one of the assays; read-out: EC50 (IC50)
# Method: FSH activity of compounds were tested in Chinese Hamster Ovary (CHO) cells stably transfected with the human FSH receptor and cotransfected with a cAMP responsive element (CRE)/promotor directing the expression of a firefly luciferase reporter gene. Binding of ligand to the Gs-coupled FSH receptor will result in an increase of cAMP, which in turn will induce an increased transactivation of the luciferase reporter construct. […] The luciferase signal was quantified using a luminescence counter. […]
METRIC: EC50

Guide cases for EC50, answers given:
// fetch human FSH receptor (Homo sapiens) EC50 for CCNc1cc2c(cc1NC(=O)c1ccc(-c3ccccc3)cc1)C(C)(c1ccccc1)CC(C)(C)N2C(C)=O (stereo not shown) < 100 nM

Proceed to CC(=O)N1c2cc(N(C)C)c(NC(=O)C(C)C)cc2C(C)(c2ccccc2)CC1(C)C (stereo not shown) < 100 nM

Proceed to CC(=O)N1c2cc(N(C)C)c(NC(=O)C3CCCC3)cc2C(C)(c2ccccc2)CC1(C)C (stereo not shown) < 100 nM

Continuing:
// fetch human FSH receptor (Homo sapiens) EC50 for CC(=O)N1c2cc(OCC(=O)N(C)C)c(NC(=O)c3ccc(-c4ccccc4)cc3)cc2C(C)(c2ccccc2)CC1(C)C (stereo not shown) < 100 nM
